Test system: NCI-H2009
EXPERIMENTAL_DETAILS: relative viability (nuclei count vs DMSO), 5 days (fraction); higher = more cells survive
CONDITION_SUMMARY: first compound 0.01581 µM
Values of relative viability strictly less than 0.5 map to Yes, and values of at least 0.5 map to No.

COMPOUND: Nc1ccn([C@@H]2O[C@H](CO)[C@@H](O)[C@@H]2O)c(=O)n1 [Cytarabine] + COc1cccc2cc(-c3nc([C@H]4CC[C@H](C(=O)O)CC4)n4ncnc(N)c34)[nH]c12 [OSI-027] (partner 0.5 µM)
ANSWER_LABEL: No
--
COMPOUND: COc1cc2nccc(Oc3ccc(NC(=O)Nc4cc(C)on4)c(Cl)c3)c2cc1OC [Tivozanib] + CC(=O)Nc1cccc(-n2c(=O)n(C3CC3)c(=O)c3c(Nc4ccc(I)cc4F)n(C)c(=O)c(C)c32)c1 [Trametinib] (partner 0.02 µM)
ANSWER_LABEL: Yes
--
COMPOUND: COc1cc2nccc(Oc3ccc(NC(=O)Nc4cc(C)on4)c(Cl)c3)c2cc1OC [Tivozanib] + Nc1ncn([C@H]2C[C@H](O)[C@@H](CO)O2)c(=O)n1 [Decitabine] (partner 2 µM)
ANSWER_LABEL: Yes
--
COMPOUND: Nc1ccn([C@@H]2O[C@H](CO)[C@@H](O)[C@@H]2O)c(=O)n1 [Cytarabine] + O=C(c1cc(Cc2n[nH]c(=O)c3ccccc23)ccc1F)N1CCN(C(=O)C2CC2)CC1 [Olaparib] (partner 8 µM)
ANSWER_LABEL: No
--
COMPOUND: COc1cc2nccc(Oc3ccc(NC(=O)Nc4cc(C)on4)c(Cl)c3)c2cc1OC [Tivozanib] + N=C(N)NC(=N)NCCc1ccccc1 [Phenformin] (partner 250 µM)
ANSWER_LABEL: Yes
--
COMPOUND: Nc1ccn([C@@H]2O[C@H](CO)[C@@H](O)[C@@H]2O)c(=O)n1 [Cytarabine] + COc1cc2c(Oc3ccc(NC(=O)C4(C(=O)Nc5ccc(F)cc5)CC4)cc3F)ccnc2cc1OCCCN1CCOCC1 [Foretinib] (partner 0.25 µM)
ANSWER_LABEL: No
--
COMPOUND: COc1cc2nccc(Oc3ccc(NC(=O)Nc4cc(C)on4)c(Cl)c3)c2cc1OC [Tivozanib] + Cc1nc(Nc2ncc(C(=O)Nc3c(C)cccc3Cl)s2)cc(N2CCN(CCO)CC2)n1 [Dasatinib] (partner 0.075 µM)
ANSWER_LABEL: Yes
--
COMPOUND: Nc1ccn([C@@H]2O[C@H](CO)[C@@H](O)[C@@H]2O)c(=O)n1 [Cytarabine] + Cc1nc(NC(=O)N2CCC[C@H]2C(N)=O)sc1-c1ccnc(C(C)(C)C(F)(F)F)c1 [Alpelisib] (partner 2 µM)
ANSWER_LABEL: No
--
COMPOUND: Nc1ccn([C@@H]2O[C@H](CO)[C@@H](O)[C@@H]2O)c(=O)n1 [Cytarabine] + Cc1cc(Nc2cc(N3CCN(C)CC3)nc(Sc3ccc(NC(=O)C4CC4)cc3)n2)n[nH]1 [Tozasertib] (partner 0.1 µM)
ANSWER_LABEL: No
--
COMPOUND: Nc1ccn([C@@H]2O[C@H](CO)[C@@H](O)[C@@H]2O)c(=O)n1 [Cytarabine] + Cc1nc(Nc2ncc(C(=O)Nc3c(C)cccc3Cl)s2)cc(N2CCN(CCO)CC2)n1 [Dasatinib] (partner 0.075 µM)
ANSWER_LABEL: Yes
